Target: HER2 (Homo sapiens)
Construct: endogenous in cells; host or cells: Calu3 tumor cell line
Sequence (P04626 23-1255): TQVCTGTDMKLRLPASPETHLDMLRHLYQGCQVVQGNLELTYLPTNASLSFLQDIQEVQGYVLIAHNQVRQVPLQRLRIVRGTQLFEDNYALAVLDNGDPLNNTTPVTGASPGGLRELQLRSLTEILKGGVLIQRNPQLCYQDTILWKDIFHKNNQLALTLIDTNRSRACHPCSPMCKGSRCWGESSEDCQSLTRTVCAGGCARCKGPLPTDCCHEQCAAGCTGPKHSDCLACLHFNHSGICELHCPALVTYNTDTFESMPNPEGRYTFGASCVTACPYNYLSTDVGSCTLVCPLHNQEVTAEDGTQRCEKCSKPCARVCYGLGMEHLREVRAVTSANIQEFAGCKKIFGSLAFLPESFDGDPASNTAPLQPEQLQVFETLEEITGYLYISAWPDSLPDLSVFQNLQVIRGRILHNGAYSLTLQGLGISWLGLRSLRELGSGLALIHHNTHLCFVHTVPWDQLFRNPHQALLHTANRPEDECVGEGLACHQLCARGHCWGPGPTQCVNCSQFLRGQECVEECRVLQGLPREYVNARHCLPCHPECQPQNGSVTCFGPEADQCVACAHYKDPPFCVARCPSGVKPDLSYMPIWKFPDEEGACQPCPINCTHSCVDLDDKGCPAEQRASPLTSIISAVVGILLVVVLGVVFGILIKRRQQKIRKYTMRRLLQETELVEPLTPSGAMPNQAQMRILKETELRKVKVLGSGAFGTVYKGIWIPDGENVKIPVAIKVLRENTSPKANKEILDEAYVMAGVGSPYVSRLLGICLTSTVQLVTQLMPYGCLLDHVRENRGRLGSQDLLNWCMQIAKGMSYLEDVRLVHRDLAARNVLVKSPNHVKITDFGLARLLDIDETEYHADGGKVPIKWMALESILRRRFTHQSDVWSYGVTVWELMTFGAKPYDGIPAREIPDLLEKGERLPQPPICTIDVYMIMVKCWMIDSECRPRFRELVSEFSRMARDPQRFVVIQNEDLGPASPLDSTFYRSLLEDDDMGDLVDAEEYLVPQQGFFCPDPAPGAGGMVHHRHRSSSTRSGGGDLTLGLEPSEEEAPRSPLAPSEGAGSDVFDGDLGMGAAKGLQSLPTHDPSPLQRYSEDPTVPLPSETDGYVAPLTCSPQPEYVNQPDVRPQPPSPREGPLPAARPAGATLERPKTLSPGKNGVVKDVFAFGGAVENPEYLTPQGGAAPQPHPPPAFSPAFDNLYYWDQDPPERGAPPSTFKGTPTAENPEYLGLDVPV
Assay: Inhibition of HER2 Phosphorylation in Calu3 Tumor Cell Line
Assay type: cell-based
Conditions: Calu-3; Calu3 cells, compound concentration 1 μM, 16 h incubation, pY 1248 in HER2, percentage of the DMSO treated control; read-out: Percent inhibition of HER2-phosphorylation
Method: Inhibition of HER2 Phosphorylation in Calu3 Tumor Cell Line 2×10^5 Calu3 cells per well were plated in a 12-well plate. After 4 days cells were starved for 16 h in DMEM (Dulbecco's Modified Eagle Medium)/0.5% FCS/1% glutamine. […] Cell lysates were analyzed on a SDS PAGE and after transfer to a nitrocellulose membrane detected with a rabbit antibody specifically recognizing the pY 1248 in HER2 (Cell Signaling). […] Inhibition of HER2 phosphorylation is calculated as percentage of the DMSO treated control. […]
Outcome label depends on inhibition at 1 µM relative to 70%: at/above gives true (1), below gives false (0).

[
  {
    "molecule": "FS(F)(F)(F)(F)c1ccc(C=Cc2nc(COc3ccc(OCCCn4ccnn4)cc3)co2)cc1 [example 15]",
    "qualitative-label": "true (1)"
  },
  {
    "molecule": "FS(F)(F)(F)(F)c1ccc(/C=C/c2nc(COc3ccc(CCCCn4ccnn4)cc3)co2)cc1 [example 4]",
    "qualitative-label": "true (1)"
  },
  {
    "molecule": "FS(F)(F)(F)(F)c1ccc(C=Cc2nc(COc3ccc(CCCCn4ccnc4)cc3)co2)cc1 [example 1]",
    "qualitative-label": "true (1)"
  },
  {
    "molecule": "FS(F)(F)(F)(F)c1ccc(C=Cc2nc(CNc3ccc(CCCCn4ccnn4)cc3)co2)cc1 [example 16]",
    "qualitative-label": "true (1)"
  },
  {
    "molecule": "O=S(=O)(CCn1ccnn1)Cc1ccc(OCc2coc(/C=C/c3ccc(S(F)(F)(F)(F)F)cc3)n2)cc1 [example 11]",
    "qualitative-label": "false (0)"
  }
]

Entry source: patent US7235574B2
